- protocol summary: activity coefficient (dimensionless); of the first substance listed, at infinite dilution; xn = mol fraction of the nth substance listed
- assay conditions: 312.55 K; 101 kPa; Liquid; Chromatography; x1 = 0
Overview of recorded activity coefficient for various compounds

Example compounds with recorded activity coefficient:
CC#N [acetonitrile] + CCn1cc[n+](C)c1.CS(=O)(=O)[O-]; 1.26
C=O [methanal] + CCn1cc[n+](C)c1.CS(=O)(=O)[O-]; 0.615
CCCC=O [butanal] + CCn1cc[n+](C)c1.CS(=O)(=O)[O-]; 4.87
CCN(CC)CC [triethylamine] + CCn1cc[n+](C)c1.CS(=O)(=O)[O-]; 8.32
CC(C)OC(C)C [diisopropyl ether] + CCn1cc[n+](C)c1.CS(=O)(=O)[O-]; 84.5

activity coefficient lookup needed for ClC(Cl)Cl [trichloromethane] + CCn1cc[n+](C)c1.CS(=O)(=O)[O-] , thanks. 0.563
